# systemTested: hGLP1R (Homo sapiens, UniProt P43220)
# Construct: expressed in transfected cells; host or cells: HEK-293 cells carrying a CRE-luciferase reporter gene
# Sequence (P43220 24-463): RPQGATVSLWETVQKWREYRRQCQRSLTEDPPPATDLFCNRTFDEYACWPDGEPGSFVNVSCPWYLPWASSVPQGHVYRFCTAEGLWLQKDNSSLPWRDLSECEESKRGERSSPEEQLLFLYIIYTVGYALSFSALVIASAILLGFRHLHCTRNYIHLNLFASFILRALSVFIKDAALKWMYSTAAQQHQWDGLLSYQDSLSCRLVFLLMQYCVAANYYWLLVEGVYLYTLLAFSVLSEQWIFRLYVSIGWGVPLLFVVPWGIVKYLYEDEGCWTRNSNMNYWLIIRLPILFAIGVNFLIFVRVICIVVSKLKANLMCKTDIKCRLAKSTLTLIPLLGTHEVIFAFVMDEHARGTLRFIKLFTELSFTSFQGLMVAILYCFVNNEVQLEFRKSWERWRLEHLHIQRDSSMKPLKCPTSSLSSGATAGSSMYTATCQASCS
# protocolNotes: hGLP1R CreLuc reporter gene assay in 0.5% and 100% plasma
# Format: cell-based
# conditionSummary: CreLuc reporter gene assay, 0.5% human plasma; read-out: hGLP1R 0.5% hP
Starred links: 1 amine or outer side, 2 acyl side, 3 side chain; linkers in the order of their positions; H or OH if unused. Non-standard residues stand in square brackets, D forms with d. Groups on a side chain read outwards from the residue. No end group written: not given here. *: point of attachment. C20 diacid = O=C(O)CCCCCCCCCCCCCCCCCCC(=O)*; C18 diacid = O=C(O)CCCCCCCCCCCCCCCCC(=O)*; γGlu = O=C(O)[C@H](CCC(=O)[*:2])N[*:1]; εLys = N[C@@H](CCCCN[*:1])C(=O)[*:2]; β3hQ = NC(=O)CC[C@H](N)CC(=O)O; Tle = CC(C)(C)[C@H](N)C(=O)O; AEEA = NCCOCCOCC(=O)O; Aib = CC(C)(N)C(=O)O
Exercise: state measured EC50 for each of the substances provided.
Express the result in nM but write the number alone.

Ask: For the record H-Y[Aib]EGTFTSDYSI[Aib]LEEQAQ[Aib]AFVQWLIK([εLys-γGlu-γGlu-γGlu-γGlu-γGlu-C20 diacid])GGPSSGASLRHYYNWLTRQRY-NH2 [Compound 34] , what value of EC50 is listed for hGLP1R (Homo sapiens, UniProt P43220)?
Result: 0.09

Ask: For the record H-Y[Aib]EGTFTSDYSI[Aib]LEKQAQ[Aib]AFVEWLIK([εLys-γGlu-γGlu-γGlu-γGlu-γGlu-γGlu-C20 diacid])GGPSSGASLRHY[Aib]NR[Aib]TRQRY-NH2 [Compound 18] , what value of EC50 is listed for hGLP1R (Homo sapiens, UniProt P43220)?
Result: 0.12

Ask: For the record Y[Aib]EGTFTSDYSI[Aib]LEKQAQ[Aib]AFVEWLIK([γGlu-γGlu-γGlu-γGlu-γGlu-C20 diacid])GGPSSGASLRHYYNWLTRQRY-NH2 [Compound 238] , what value of EC50 is listed for hGLP1R (Homo sapiens, UniProt P43220)?
Result: 0.1

Ask: For the record H-Y[Aib]EGTFTSDYSI[Aib]LEKQAQ[Aib]EFVEWLIK([γGlu-γGlu-γGlu-γGlu-C18 diacid])GGPSEGASLRHYYNWLTRQRY-NH2 [Compound 276] , what value of EC50 is listed for hGLP1R (Homo sapiens, UniProt P43220)?
Result: 0.35

Ask: For the record H-Y[Aib]EGTFTSDYSI[Aib]LEKQAQ[Aib]AFIEWLIK([γGlu-γGlu-γGlu-γGlu-C20 diacid])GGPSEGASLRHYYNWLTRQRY-NH2 [Compound 283] , what value of EC50 is listed for hGLP1R (Homo sapiens, UniProt P43220)?
Result: 0.13

Ask: For the record H-Y[Aib]EGTFTSDYSI[Aib]LEKQAQ[Aib]AFVQWLIK([AEEA-AEEA-γGlu-γGlu-γGlu-γGlu-C20 diacid])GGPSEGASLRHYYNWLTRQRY-NH2 [Compound 269] , what value of EC50 is listed for hGLP1R (Homo sapiens, UniProt P43220)?
Result: 0.14

Ask: For the record H-Y[Aib]EGTFTSDYSI[Aib]LEKQAE[Aib]AFVQWLIK([εLys-γGlu-γGlu-γGlu-γGlu-C18 diacid])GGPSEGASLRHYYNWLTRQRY-NH2 [Compound 174] , what value of EC50 is listed for hGLP1R (Homo sapiens, UniProt P43220)?
Result: 0.22

Ask: For the record H-Y[Aib]EGTFTSDYSI[Aib]LEKQAQ[Aib]AFVEYLIK([εLys-γGlu-γGlu-γGlu-γGlu-γGlu-γGlu-C20 diacid])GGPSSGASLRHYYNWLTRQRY-NH2 [Compound 135] , what value of EC50 is listed for hGLP1R (Homo sapiens, UniProt P43220)?
Result: 0.24

Ask: For the record H-Y[Aib]EGTFTSDYSI[Aib]LEKQAQ[Aib]AFVQWLIK([AEEA-AEEA-γGlu-γGlu-γGlu-γGlu-γGlu-C20 diacid])GGPESGASLRHYYNWLTRQRY-NH2 [Compound 32] , what value of EC50 is listed for hGLP1R (Homo sapiens, UniProt P43220)?
Result: 0.07

Ask: For the record H-Y[Aib]EGTFTSDYSI[Aib]LEKQAE[Aib]AFVEWLIK([γGlu-γGlu-γGlu-γGlu-C18 diacid])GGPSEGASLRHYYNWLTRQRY-NH2 [Compound 262] , what value of EC50 is listed for hGLP1R (Homo sapiens, UniProt P43220)?
Result: 0.13

Ask: For the record H-Y[Aib]EGTFTSDYSI[Aib]LEKQAQ[Aib]AFVEWLIK([εLys-γGlu-γGlu-γGlu-γGlu-γGlu-γGlu-C20 diacid])GGPSSGASLRHY[Tle]NWLTRQRY-NH2 [Compound 133] , what value of EC50 is listed for hGLP1R (Homo sapiens, UniProt P43220)?
Result: 0.16

Ask: For the record H-Y[Aib]EGTFTSDYSI[Aib]LEKQAQ[Aib]AFVEWLIK([εLys-γGlu-γGlu-γGlu-γGlu-γGlu-γGlu-C20 diacid])GGPSSGASVRHYYNWLTRQRY-NH2 [Compound 117] , what value of EC50 is listed for hGLP1R (Homo sapiens, UniProt P43220)?
Result: 0.13

Ask: For the record H-Y[Aib]EGTFTSDYSI[Aib]LEKQAQ[Aib]AFVQWLIK([AEEA-AEEA-γGlu-γGlu-γGlu-γGlu-γGlu-C18 diacid])GGPSEPASLRHYYNWLTRQRY-NH2 [Compound 142] , what value of EC50 is listed for hGLP1R (Homo sapiens, UniProt P43220)?
Result: 0.12

Ask: For the record H-Y[Aib]EGTFTSDYSI[Aib]LEKQAQ[Aib]EFVEWLIK([AEEA-AEEA-γGlu-γGlu-γGlu-γGlu-C18 diacid])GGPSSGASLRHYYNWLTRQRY-NH2 [Compound 145] , what value of EC50 is listed for hGLP1R (Homo sapiens, UniProt P43220)?
Result: 0.31

Ask: For the record H-Y[Aib]EGTFTSDYSI[Aib]LEKQAQ[dR]AFVEWLIK([εLys-γGlu-γGlu-γGlu-γGlu-γGlu-γGlu-C20 diacid])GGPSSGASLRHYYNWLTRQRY-NH2 [Compound 216] , what value of EC50 is listed for hGLP1R (Homo sapiens, UniProt P43220)?
Result: 0.31

Ask: For the record H-Y[Aib]EGTFTSDYSI[Aib]LEKQAQ[Aib]EFVQWLIK([εLys-γGlu-γGlu-γGlu-γGlu-γGlu-C18 diacid])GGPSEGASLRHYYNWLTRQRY-NH2 [Compound 154] , what value of EC50 is listed for hGLP1R (Homo sapiens, UniProt P43220)?
Result: 0.26

Ask: For the record H-Y[Aib]EGTFTSDYSI[Aib]LEKQAQ[Aib]AFVEWLIK([εLys-γGlu-γGlu-γGlu-γGlu-γGlu-γGlu-C20 diacid])GGPSSGASLRHYYNWLTR[β3hQ]RY-NH2 [Compound 208] , what value of EC50 is listed for hGLP1R (Homo sapiens, UniProt P43220)?
Result: 0.11

Ask: For the record H-Y[Aib]EGTFTSDYSI[Aib]LEKQAQ[Aib]AFVEWLIK([γGlu-γGlu-γGlu-γGlu-γGlu-C18 diacid])GGPSSPASLRHYYNWLTRQRY-NH2 [Compound 180] , what value of EC50 is listed for hGLP1R (Homo sapiens, UniProt P43220)?
Result: 0.1

Ask: For the record H-Y[Aib]EGTFTSDYSI[Aib]LEKQAQ[Aib]AFVQWLIK([εLys-γGlu-γGlu-γGlu-γGlu-γGlu-γGlu-C20 diacid])GGPSSYVSLRHYYNWLTRQRY-NH2 [Compound 15] , what value of EC50 is listed for hGLP1R (Homo sapiens, UniProt P43220)?
Result: 0.16

Ask: For the record H-Y[Aib]EGTFTSDYSI[Aib]LEKQAQ[Aib]AFVEWLIK([εLys-γGlu-γGlu-γGlu-γGlu-γGlu-γGlu-C20 diacid])GGPSSGATLRHYYNWLTRQRY-NH2 [Compound 91] , what value of EC50 is listed for hGLP1R (Homo sapiens, UniProt P43220)?
Result: 0.17
